Hi there, I'd appreciate the recorded pIC50 for every entry that follows.
tested on: HeLa/TK^−; assay: Cytostatic assay, HeLa/TK^− cells; assay type: cell-based; details: Homo sapiens, HeLa; Table 6; read-out: IC50 HeLa/TK^−
Answers are plain numbers, as −log10 of the molar value.

The examples below pair each entry with its known result.
INSERT INTO measurements (compound, number) VALUES
  ('CC(C)OC(=O)[C@H](C)NP(=O)(OC[C@H]1O[C@@H](n2cc(F)c(=O)[nH]c2=O)CC1O)Oc1ccccc1 (stereo partly shown)', 4.60),
  ('CCCCOC(=O)[C@H](C)NP(=O)(OC[C@H]1O[C@@H](n2cc(F)c(=O)[nH]c2=O)CC1O)Oc1cccc2ccccc12 (stereo partly shown)', 5.57),
  ('CSCC[C@H](NP(=O)(OC[C@H]1O[C@@H](n2cc(F)c(=O)[nH]c2=O)CC1O)Oc1ccccc1)C(=O)OCc1ccccc1 (stereo partly shown)', 4.96),
  ('COC(=O)[C@H](C)NP(=O)(OC[C@H]1O[C@@H](n2cc(F)c(=O)[nH]c2=O)CC1O)Oc1ccccc1 (stereo partly shown) [CPF 382, reference compound]', 5.33),
  ('O=C(OCc1ccccc1)[C@H](Cc1ccccc1)NP(=O)(OC[C@H]1O[C@@H](n2cc(F)c(=O)[nH]c2=O)CC1O)Oc1cccc2ccccc12 (stereo partly shown)', 5.17);

For each of the compounds below, state pIC50.
1. C[C@H](NP(=O)(OC[C@H]1O[C@@H](n2cc(F)c(=O)[nH]c2=O)CC1O)Oc1cccc2ccccc12)C(=O)OCCC(C)(C)C (stereo partly shown)
2. CCOC(=O)C(C)(C)NP(=O)(OC[C@H]1O[C@@H](n2cc(F)c(=O)[nH]c2=O)CC1O)Oc1cccc2ccccc12 (stereo partly shown)
3. C[C@H](NP(=O)(OC[C@H]1O[C@@H](n2cc(F)c(=O)[nH]c2=O)CC1O)Oc1cccc2ccccc12)C(=O)OCC1CC1 (stereo partly shown)
4. CCOC(=O)C(C)(C)NP(=O)(OC[C@H]1O[C@@H](n2cc(F)c(=O)[nH]c2=O)CC1O)Oc1ccccc1 (stereo partly shown)
5. C[C@H](NP(=O)(OC[C@H]1O[C@@H](n2cc(F)c(=O)[nH]c2=O)CC1O)Oc1cccc2ccccc12)C(=O)OC1CCC1 (stereo partly shown)

1. 5.89
2. 5.49
3. 5.85
4. 4.77
5. 5.82

Hello, the source for this data is patent US10993957B2, in case you need it.
